Data credit: the supplement of paper PMC7877785

experiment: self-splicing fitness, log relative to wild type (ln ratio); higher = more splicing; Tetrahymena group I intron in knt gene, E. coli kanamycin selection, DiMSum; sequences stand for … in CUCUCU…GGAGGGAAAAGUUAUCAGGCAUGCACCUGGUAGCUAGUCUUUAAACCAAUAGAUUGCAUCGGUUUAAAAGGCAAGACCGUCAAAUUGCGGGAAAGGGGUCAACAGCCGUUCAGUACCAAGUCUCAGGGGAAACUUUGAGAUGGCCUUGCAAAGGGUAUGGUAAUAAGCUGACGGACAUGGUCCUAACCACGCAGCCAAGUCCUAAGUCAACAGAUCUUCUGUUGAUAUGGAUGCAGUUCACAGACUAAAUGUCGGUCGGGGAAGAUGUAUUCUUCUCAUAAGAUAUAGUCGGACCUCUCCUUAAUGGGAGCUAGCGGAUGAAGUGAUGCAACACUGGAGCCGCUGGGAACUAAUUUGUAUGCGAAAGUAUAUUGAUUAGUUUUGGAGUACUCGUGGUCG; settings: 30 °C;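 further: selection with 25 µg/mL kanamycin versus none on LB agar overnight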
assay-metric: self-splicing fitness (ln)

1. UCGGAGCAAUAUUACGCAUG; -3.6
2. AGCAAGCAAUAUUACGAGGU; -3.87
3. CAUUAGCAAUAUUACGGCUG; 0.0732
4. GGAAAGCAAUAUUACGCCUU; -1.07
5. GACGAGCAAUAUUACGCUGA; -3.74
6. CACCAGCAAUAUUACGUACU; -3.08
7. ACCCAGCAAUAUUACGGGGA; -1.02
8. GUAAAGCAAUAUUACGGGGU; -3.02
9. CUAUAGCAAUAUUACGUCCG; -0.823
10. CCAUAGCAAUAUUACGAUCA; -2.94
11. GUCAAGCAAUAUUACGAAAC; -1.37
12. AACUAGCAAUAUUACGUUAG; -3.12
13. GGGAAGCAAUAUUACGGCCG; -0.164
14. UUACAGCAAUAUUACGGUAA; -2.33
15. GCUUAGCAAUAUUACGGAAC; -0.644
16. UUGCAGCAAUAUUACGCUCU; -1.01
17. CAACAGCAAUAUUACGCUGC; -3.4
18. CGGCAGCAAUAUUACGAUAU; -4.27
19. GGUAAGCAAUAUUACGGCAG; -3.62
20. UGACAGCAAUAUUACGCCUA; 0.107
21. CCUCAGCAAUAUUACGGUCU; -3.73
22. GUCAAGCAAUAUUACGGUAA; -1.28
23. UCUUAGCAAUAUUACGCGAG; -2.25
24. ACUAAGCAAUAUUACGAUGG; -0.371
25. AGUAAGCAAUAUUACGGCUG; -0.953
26. GGAUAGCAAUAUUACGGCUC; -0.0157
27. GGGUAGCAAUAUUACGUCAU; -0.733
28. AUCUAGCAAUAUUACGUCCA; -0.699
29. UACUAGCAAUAUUACGUGUU; -3.16
30. CUUUAGCAAUAUUACGUACU; -2.22
31. GAAAAGCAAUAUUACGUACU; -0.864
32. AAUAAGCAAUAUUACGGAUC; -0.855
33. UGGCAGCAAUAUUACGUCUA; -0.425
34. GCGCAGCAAUAUUACGGACA; -1.45

====

test: self-splicing fitness, log relative to wild type (ln ratio); higher = more splicing; Tetrahymena group I intron in knt gene, E. coli kanamycin selection, DiMSum; sequences stand for … in CUCUCU…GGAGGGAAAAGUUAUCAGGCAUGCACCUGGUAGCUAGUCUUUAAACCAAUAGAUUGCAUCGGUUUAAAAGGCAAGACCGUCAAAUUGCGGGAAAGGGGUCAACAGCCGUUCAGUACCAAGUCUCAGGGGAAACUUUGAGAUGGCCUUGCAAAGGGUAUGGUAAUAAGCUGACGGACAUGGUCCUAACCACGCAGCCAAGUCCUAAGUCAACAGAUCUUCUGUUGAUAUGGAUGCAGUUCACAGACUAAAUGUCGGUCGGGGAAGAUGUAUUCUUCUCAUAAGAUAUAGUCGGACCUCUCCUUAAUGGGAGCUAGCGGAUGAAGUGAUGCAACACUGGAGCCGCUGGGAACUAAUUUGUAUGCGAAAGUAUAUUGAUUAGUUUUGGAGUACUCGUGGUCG; conditions: 30 °C
Entry class follows self-splicing fitness (ln): lower range: < -3; middle range: ≥ -3 and < -2; upper range: ≥ -2

1. GCGCAGCAAUAUUACGACGG; upper range
2. GUCGAGCAAUAUUACGUGCC; middle range
3. ACAUAGCAAUAUUACGUCCC; upper range
4. AAUAAGCAAUAUUACGCCAU; middle range
5. UGCGAGCAAUAUUACGUAAC; lower range
6. CCAUAGCAAUAUUACGACUG; upper range
7. AAGAAGCAAUAUUACGCCUA; upper range
8. UUUUAGCAAUAUUACGGGAU; lower range
9. CCUUAGCAAUAUUACGUUGG; lower range
10. GAAGAGCAAUAUUACGGGAC; lower range
11. AGGGAGCAAUAUUACGGGAU; lower range
12. UAUGAGCAAUAUUACGAGGG; lower range
13. CAUCAGCAAUAUUACGGAGA; upper range
14. CGUAAGCAAUAUUACGGAUG; upper range
15. GAAGAGCAAUAUUACGUACG; lower range
16. UUUUAGCAAUAUUACGAAAG; middle range
17. CGGAAGCAAUAUUACGGUUG; upper range
18. AUAGAGCAAUAUUACGAUUU; upper range
19. UAAAAGCAAUAUUACGGAAA; middle range
20. UAUUAGCAAUAUUACGACUU; upper range
21. ACCCAGCAAUAUUACGCAUA; upper range
22. AACUAGCAAUAUUACGUUAC; upper range
23. UCCAAGCAAUAUUACGAGUA; upper range
24. CUCUAGCAAUAUUACGCAGC; lower range
25. UUUGAGCAAUAUUACGCUGC; lower range
26. CAUGAGCAAUAUUACGAUGG; upper range
27. AACAAGCAAUAUUACGGUCA; upper range
28. CCCCAGCAAUAUUACGGUUG; middle range
29. GAGAAGCAAUAUUACGCCUU; middle range
30. CCUCAGCAAUAUUACGCCUA; middle range

====

assay: self-splicing fitness, log relative to wild type (ln ratio); higher = more splicing; Tetrahymena group I intron in knt gene, E. coli kanamycin selection, DiMSum; sequences stand for … in CUCUCU…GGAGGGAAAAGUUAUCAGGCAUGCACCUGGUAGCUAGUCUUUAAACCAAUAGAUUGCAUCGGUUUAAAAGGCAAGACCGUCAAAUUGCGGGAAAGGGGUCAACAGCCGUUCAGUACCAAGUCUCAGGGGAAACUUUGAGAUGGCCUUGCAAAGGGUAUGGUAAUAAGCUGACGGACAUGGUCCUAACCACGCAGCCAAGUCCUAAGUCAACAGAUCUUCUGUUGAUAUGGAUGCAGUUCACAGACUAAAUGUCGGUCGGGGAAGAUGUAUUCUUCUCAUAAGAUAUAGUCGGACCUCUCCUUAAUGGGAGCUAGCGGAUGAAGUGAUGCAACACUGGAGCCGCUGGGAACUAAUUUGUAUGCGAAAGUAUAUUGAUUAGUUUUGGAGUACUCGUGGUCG; conditions: 37 °C
Rule: self-splicing fitness (ln) of -2 or more gives yes; anything lower gives no.

1. CAGCAGCAAUAUUACGGUUA; yes
2. GAGCAGCAAUAUUACGUAUA; no
3. UUAAAGCAAUAUUACGGAUG; yes
4. CAGCAGCAAUAUUACGGGCG; yes
5. AGAAAGCAAUAUUACGGCAU; yes
6. GGCAAGCAAUAUUACGCCAA; yes
7. GAGGAGCAAUAUUACGGCCG; yes
8. CCACAGCAAUAUUACGAGUC; no
9. AGGGAGCAAUAUUACGUGGA; no
10. UUUAAGCAAUAUUACGGGCG; yes
11. GCACAGCAAUAUUACGCUGU; no
12. CCGGAGCAAUAUUACGCUAG; no
13. AUGCAGCAAUAUUACGUCGA; yes
14. UCCAAGCAAUAUUACGAACG; yes
15. GACAAGCAAUAUUACGGCGA; yes
16. UACUAGCAAUAUUACGAAAC; no

====

Recorded measurements of self-splicing fitness (ln), one per entry
test: self-splicing fitness, log relative to wild type (ln ratio); higher = more splicing; Tetrahymena group I intron in knt gene, E. coli kanamycin selection, DiMSum; sequences stand for … in CUCUCU…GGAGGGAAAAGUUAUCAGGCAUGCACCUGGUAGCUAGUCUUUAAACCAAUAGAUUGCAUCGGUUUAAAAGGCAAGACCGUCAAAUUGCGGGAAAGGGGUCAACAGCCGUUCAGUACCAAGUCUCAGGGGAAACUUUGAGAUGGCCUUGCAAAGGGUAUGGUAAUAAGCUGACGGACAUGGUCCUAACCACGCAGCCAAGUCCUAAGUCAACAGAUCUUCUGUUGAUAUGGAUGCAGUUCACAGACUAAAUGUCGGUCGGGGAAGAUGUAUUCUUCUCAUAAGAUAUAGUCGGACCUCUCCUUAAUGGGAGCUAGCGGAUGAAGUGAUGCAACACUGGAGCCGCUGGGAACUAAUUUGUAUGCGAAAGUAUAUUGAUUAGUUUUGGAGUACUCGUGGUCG; conditions: 37 °C
assay-metric: self-splicing fitness (ln)

1. GUACAGCAAUAUUACGAGGG; -2.42
2. UGGUAGCAAUAUUACGAUCU; 0.576
3. GCUUAGCAAUAUUACGAUCU; 0.155
4. AGCGAGCAAUAUUACGCAUU; -2.04
5. AGGCAGCAAUAUUACGCUUU; -1.41
6. GACCAGCAAUAUUACGUUAG; -2.79
7. UCCUAGCAAUAUUACGUGGG; -2.5
8. CUAGAGCAAUAUUACGUGGG; -0.906
9. UGGAAGCAAUAUUACGCACU; -0.124
10. AGCCAGCAAUAUUACGGGGU; -2.22
11. UCGUAGCAAUAUUACGCAAU; -1.99
12. CAUCAGCAAUAUUACGGAGU; -0.842
13. UUUGAGCAAUAUUACGAUAG; -1.87
14. GUCUAGCAAUAUUACGCAUG; -0.64
15. CGUAAGCAAUAUUACGUAUA; -2.21
16. UUUGAGCAAUAUUACGCGUA; 0.0632
17. AAUGAGCAAUAUUACGGCCA; 0.411
18. CUAUAGCAAUAUUACGAGAU; 0.449
19. UACAAGCAAUAUUACGCCUU; -1.04
20. AAUGAGCAAUAUUACGUACG; -2.32
21. GCAUAGCAAUAUUACGCAGG; -1.35
22. AGGAAGCAAUAUUACGGCAU; -0.506
23. GCUAAGCAAUAUUACGCGUU; -0.649
24. AAGCAGCAAUAUUACGUUCU; 0.0556
25. GGGAAGCAAUAUUACGAUGU; -0.0643
26. UCUGAGCAAUAUUACGUUAA; -0.512
27. UCUCAGCAAUAUUACGUAGC; -1.16
28. CAGUAGCAAUAUUACGAGGA; -1.77
29. CCAAAGCAAUAUUACGCGUG; -1.26
30. UAAAAGCAAUAUUACGUAAG; -0.764
31. CCUGAGCAAUAUUACGGGGA; -3.37
32. UGUAAGCAAUAUUACGAUUA; 0.447
33. UGUCAGCAAUAUUACGGUAC; -1.38
34. AGGAAGCAAUAUUACGUCAG; -2.41
35. UGCUAGCAAUAUUACGUGCU; -2
36. AGGGAGCAAUAUUACGGGGC; -0.893
37. UAGGAGCAAUAUUACGCGUC; -2.22
38. GUGGAGCAAUAUUACGGCGU; -0.557
39. AGCUAGCAAUAUUACGAAUU; -1.14
40. AACCAGCAAUAUUACGUGAU; -1.11
41. GCUAAGCAAUAUUACGCUGU; -3.18
42. CCCCAGCAAUAUUACGCUAG; -2.86
43. CCAAAGCAAUAUUACGAUGC; -3.64
44. CCAUAGCAAUAUUACGUAGA; -2.53
45. CACAAGCAAUAUUACGGUAU; -2.35
46. UACCAGCAAUAUUACGGACU; 0.199
47. CGUAAGCAAUAUUACGCUCC; -1.74
48. UGAAAGCAAUAUUACGCUUC; -2.29
49. UAGAAGCAAUAUUACGGUUA; -0.007
50. AGACAGCAAUAUUACGGGAA; -1.38
51. ACGCAGCAAUAUUACGAAAG; -2
52. UGGAAGCAAUAUUACGUAGU; -1.41
53. UUCCAGCAAUAUUACGAGAC; -1.79
54. UUCUAGCAAUAUUACGCAUG; -2.01
55. GAUAAGCAAUAUUACGAAUU; -2.76
56. UUUUAGCAAUAUUACGUGUU; -3.09
57. UGGCAGCAAUAUUACGACGG; 0.837
58. GAGCAGCAAUAUUACGCCGG; -1.82
59. UUCCAGCAAUAUUACGGGUC; -2.12
60. GCCCAGCAAUAUUACGUCUU; -0.668
61. CGAGAGCAAUAUUACGUAAU; -2.01
62. GUUCAGCAAUAUUACGGCAU; 0.567
63. UACAAGCAAUAUUACGUCAC; -2.41
64. UUCAAGCAAUAUUACGCCGA; -0.423
65. GCGAAGCAAUAUUACGUGUG; -1.67
66. UGGAAGCAAUAUUACGUAGG; -1.05
67. GGGAAGCAAUAUUACGAGCU; -0.3
